Overview of reported 15 min repellency ratio across a group of compounds:
test system: Orlando insecticide-susceptible strain of Ae. aegypti (female mosquitoes); test: Glass tube spatial repellency assay; format: in vivo, Aedes aegypti; conditions: 10 μg/cm^2; horizontal tube; 0.5=0% repellency, 0=100% repellency
// no unit string in output, number only

> print(dat)
                          compound  experimental.value
1              O=Cc1cccc(C(=O)O)c1                0.50
2  Cc1cccc(C(N)=O)c1 [m-toluamide]                0.50

Form field 15 min repellency ratio, entry C=Cc1cccc(C=O)c1 : 0.50
